FYI, the data here is from patent US20250352659A1.

Experiment: Conjugator-antibody conjugate maleimide hydrolysis (ring opening) kinetics by reduced LCMS
Assay type: physicochemical
Details: pH 7, time point 7 h
Endpoint Label: MS DAR

// below: answered compounds
NCC(COC(=O)NCCOCCOCCOCCOCCC(=O)O)N1C(=O)C=CC1=O (stereo not shown) [3-4] ... 7.98
CN(C)C(=O)CCOCCC(CN)N1C(=O)C=CC1=O (stereo not shown) [3-14] ... 8

Sure, the documented MS DAR for CN(C)C(=O)CCNC(=O)OCC(CCN)N1C(=O)C=CC1=O (stereo not shown) [3-11] is 8

compound CC(C)N(CCC(=O)N(C)C)C(=O)OCC(CN)N1C(=O)C=CC1=O (stereo not shown) [3-9] , MS DAR observed: 7.96
